Assign selectivity ratio to each entry below.
# protocol_summary: Selectivity index, ratio of CC50 for human RD cells to EC50 for Enterovirus 71
# Type: toxicity, cell-based
# measurement_context: read-out: Ratio CC50/EC50

C[C@H]1O[C@@H](n2cnc3c(NCc4ccccc4)ncnc32)[C@H](O)[C@@H]1O :: > 54
O=C(Nc1ncnc2c1ncn2[C@@H]1O[C@H](CO)[C@@H](O)[C@H]1O)c1ccccc1 :: > 28

Now examine the next entry.
Quick check: selectivity ratio of C=CCC#CCNc1ncnc2c1ncn2[C@@H]1O[C@H](CO)[C@@H](O)[C@H]1O ?
> 88

###

# Tested on: Enterovirus A71
# protocol_summary: Antiviral activity against Enterovirus 71 infected in human RD cells assessed as cell viability after 3 days by MTS assay
# Assay type: functional, organism-based
# measurement_context: Enterovirus A, 72 h
pEC50: −log10 of the molar value.
Provide the reported pEC50 of each item.

Fill in pEC50 for each of the 4 molecules listed.
1. OC[C@H]1O[C@@H](n2cnc3c(NCc4cn(Cc5ccccc5)nn4)ncnc32)[C@H](O)[C@@H]1O
2. OC[C@H]1O[C@@H](n2cnc3c(NCCOc4ccccc4)ncnc32)C[C@@H]1O
3. OC[C@H]1O[C@@H](n2cnc3c(NCCCOc4ccccc4)ncnc32)[C@H](O)[C@@H]1O
4. OCCn1cc(CNc2ncnc3c2ncn3[C@@H]2O[C@H](CO)[C@@H](O)[C@H]2O)nn1

1. < 3.64
2. < 3.87
3. < 3.51
4. < 3.50

Return reported pEC50; argument: Cn1cc(CNc2ncnc3c2ncn3[C@@H]2O[C@H](CO)[C@@H](O)[C@H]2O)nn1
< 3.87
